Target: hen egg lysozyme, P00698
Sequence (P00698 19-147): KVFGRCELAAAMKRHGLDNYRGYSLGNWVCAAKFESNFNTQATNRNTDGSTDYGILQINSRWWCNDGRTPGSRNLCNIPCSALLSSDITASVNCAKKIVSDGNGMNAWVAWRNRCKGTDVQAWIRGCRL
Assay: SPR
Conditions: chain shown with the change;; parent: est. 3.3 pM; read off a plot
PARAMETER_MEASURED: Kd (nM)

anti-lysozyme VHH D3-L11, wild type A24L (protein) DVQLVESGGGSVQAGGSLRLSCALSGSTDSIEYMTWFRQAPGKAREGVAALYTHTGNTYYTDSVKGRFTISQDKAKNMAYLRMDSVKSEDTAIYTCGATRKYVPVRFALDQSSYDYWGQGTQVTVSS
0.045

I. anti-lysozyme VHH D3-L11, wild type A79F (protein) DVQLVESGGGSVQAGGSLRLSCAASGSTDSIEYMTWFRQAPGKAREGVAALYTHTGNTYYTDSVKGRFTISQDKAKNMFYLRMDSVKSEDTAIYTCGATRKYVPVRFALDQSSYDYWGQGTQVTVSS
II. anti-lysozyme VHH D3-L11, wild type G97F (protein) DVQLVESGGGSVQAGGSLRLSCAASGSTDSIEYMTWFRQAPGKAREGVAALYTHTGNTYYTDSVKGRFTISQDKAKNMAYLRMDSVKSEDTAIYTCFATRKYVPVRFALDQSSYDYWGQGTQVTVSS
III. anti-lysozyme VHH D3-L11, wild type G26I (protein) DVQLVESGGGSVQAGGSLRLSCAASISTDSIEYMTWFRQAPGKAREGVAALYTHTGNTYYTDSVKGRFTISQDKAKNMAYLRMDSVKSEDTAIYTCGATRKYVPVRFALDQSSYDYWGQGTQVTVSS
Please list these in order of increasing Kd. Thank you! Use the labels to give the requested order.
II, I, III
(II: 0.0062 nM, I: 0.012 nM, III: 0.026 nM)
